- Tested on: SF-539
- experimentSummary: NCI tumour cell line growth inhibition, 48 h
The source made the active and inactive calls. Rule as the data show it: active = GI50 up to about 1.1 µM and inactive = higher.
Respond with a class label; see 1 (yes) = active, 0 (no) = inactive

Reference set (8 entries):
| molecule | assignedCategory |
| --- | --- |
| CNC(=O)OCc1nc(SSC(C)(C)C)n(C)c1COC(=O)NC | 0 (no) |
| CCCCCCCCCCCCc1ccc(S(=O)(=O)O)cc1 | 0 (no) |
| N/C(=N\O)N/N=C\c1cc([N+](=O)[O-])cc([N+](=O)[O-])c1O | 0 (no) |
| CC(=O)N1N=C(c2c(O)ccc3ccccc23)CC1C(=O)c1ccco1 (stereo unspecified) | 0 (no) |
| O=C(O)CCSC(=O)Nc1cccc2ccccc12 | 0 (no) |
| O=P(O)(O)OP(=O)(O)O | 0 (no) |
| Cc1ccccc1NC(=O)O/N=C(\Cl)C(C)C | 0 (no) |
| CCCNC(=O)CCC(C)[C@H]1CCC2C3C(C[C@H](OC(C)=O)[C@@]21C)[C@@]1(C)CCC2(C[C@H]1C[C@H]3OC(C)=O)OOC1(CCC(C)CC1)OO2 (stereo partly specified) | 0 (no) |

stdin: I'd appreciate the recorded outcome for Cc1ccc2c(c1)Nc1cc(C(F)(F)F)ccc1[PH]2=O (stereo unspecified) from this test.
stdout: 0 (no)

stdin: I'd appreciate the recorded outcome for CC(C)(C)C1CCC2c3c([nH]c4ccccc34)C3C(=O)N(c4ccc(Br)cc4)C(=O)C3C2C1 (stereo unspecified) from this test.
stdout: 0 (no)

stdin: I'd appreciate the recorded outcome for COc1ccc(-c2nnc3n(Cc4ccccc4)c4ccccc4n3c2=O)cc1 from this test.
stdout: 0 (no)

stdin: I'd appreciate the recorded outcome for Oc1c2cc(Br)cc1CCc1cc(Br)cc(c1O)CC2 from this test.
stdout: 0 (no)

stdin: I'd appreciate the recorded outcome for O=c1cc(-c2ccccc2)[nH]c2cc(F)c(F)cc12 from this test.
stdout: 1 (yes)

stdin: I'd appreciate the recorded outcome for COC(=O)c1c(C)cccc1C1CN=NC12Cc1ccc(C)cc1C2=O (stereo unspecified) from this test.
stdout: 0 (no)

====

- Tested on: 786-0
- experimentSummary: NCI tumour cell line growth inhibition, 48 h
The source made the active and inactive calls. No stated cut-off is given here; in the data, active = GI50 up to about 1.1 µM and inactive = higher.
Respond with a class label; see class 1 = active, class 0 = inactive

Reference set (5 entries):
| compound | measurementTarget | assignedCategory |
| --- | --- | --- |
| CC1=NN(c2nc(N)nc(COCc3nc(N)nc(N4N=C(C)CC4(C)C)n3)n2)C(C)(C)C1 | 786-0 | class 0 |
| N#C/C(=C/c1cccc(Oc2ccccc2)c1)c1ccccc1 | 786-0 | class 0 |
| C[As+](C)(c1ccc(Br)c([N+](=O)[O-])c1)c1ccc(Br)c([N+](=O)[O-])c1 | 786-0 | class 0 |
| O=c1oc2ccccc2c(Nc2ccc3c(c2)S(=O)(=O)c2ccccc2O3)c1[N+](=O)[O-] | 786-0 | class 0 |
| Cc1c(Cc2ccccc2)n(C(C)OCCN(OC(=O)Oc2ccccc2)C(=O)Oc2ccccc2)c(=O)[nH]c1=O (centres undefined) | 786-0 | class 0 |

stdin: I'd appreciate the recorded outcome for CC1=C(C#N)C(N)=C2C(C)=C(C#N)C(N)=C12 from this test.
stdout: class 0

stdin: I'd appreciate the recorded outcome for Brc1ccc2c(c1)C1(c3cc(Br)ccc3-2)c2cc(Br)ccc2-c2ccc(Br)cc21 from this test.
stdout: class 0

stdin: I'd appreciate the recorded outcome for O=C(Nc1nncs1)NS(=O)(=O)n1c(=S)sc2ccccc21 from this test.
stdout: class 0

stdin: I'd appreciate the recorded outcome for COc1ccc(-c2c(N)n(-c3cc(OC)cc(OC)c3)c(=O)c3cc([N+](=O)[O-])ccc23)cc1 from this test.
stdout: class 0

stdin: I'd appreciate the recorded outcome for Cc1cccc(C[C@@]2(SCc3ccccc3)C(C)(C)[C@@H]3CC[C@@]2(C)C3)n1 from this test.
stdout: class 0
